B1: glmS ribozyme (parent)
chain: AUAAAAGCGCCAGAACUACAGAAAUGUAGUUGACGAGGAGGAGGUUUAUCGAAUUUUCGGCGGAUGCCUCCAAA

Variants of: B1
Run description: self-cleavage kobs at 640 uM GlcN6P; higher = faster cleavage; RNA array
Cond: with glucosamine-6-phosphate
This sample holds only a part of the variants without activity.
Below, each entry is listed alongside its reported self-cleavage kobs at 640 uM GlcN6P.

Mutation list	Quantity measured	Reported result
U30G A42G G66A C71A	self-cleavage kobs at 640 uM GlcN6P	0.00018 s⁻¹
A12G C58A	self-cleavage kobs at 640 uM GlcN6P	0.000154 s⁻¹
A6C C34A G41C C68A	self-cleavage kobs at 640 uM GlcN6P	< 1e-05 s⁻¹
A6U U49C U54A A64U C68U	self-cleavage kobs at 640 uM GlcN6P	< 1e-05 s⁻¹
C8G C50G A52U	self-cleavage kobs at 640 uM GlcN6P	< 1e-05 s⁻¹
A12U U31A C34U G37C C70U	self-cleavage kobs at 640 uM GlcN6P	< 1e-05 s⁻¹

Then this variant:
Field self-cleavage kobs at 640 uM GlcN6P (entry G32A U54A ) reads 0.00067 s⁻¹
